Assay: Clearance in dog at 0.5 mg/kg, iv
Type: ADME, organism-based, Canis lupus familiaris
Conditions: in vivo
Give measured clearance for each item. Keep answers brief.
Numbers only, in mL/min/kg.

structure=CNC(=O)c1c(-c2ccc(F)cc2)oc2cc(N(C)S(C)(=O)=O)c(-c3ccc4ccn5c6cccc(F)c6cc5c4n3)cc12 quantitative_result=2.6
structure=CNC(=O)c1c(-c2ccc(F)cc2)oc2cc(N(C)S(C)(=O)=O)c(-c3ccc4ncn5c6cccc(F)c6cc5c4n3)cc12 quantitative_result=3.2
structure=CNC(=O)c1c(-c2ccc(F)cc2)oc2cc(N(C)S(C)(=O)=O)c(-c3ccc4c(n3)-c3cc5c(F)cccc5n3CN4)cc12 quantitative_result=7.9

As a next step, examine the molecule that follows.
// sample CNC(=O)c1c(-c2ccc(F)cc2)oc2cc(N(C)S(C)(=O)=O)c(-c3ccc4c(n3)-c3cc5c(F)cccc5n3CC4)cc12 , its clearance was 2.9

====

Give measured concentration at 24 h for each item. Keep answers brief.
Test: Drug concentration in dog plasma at 2 mg/kg, po after 24 hrs
Format: ADME, organism-based, Canis lupus familiaris
Entry format: amount then unit.

Worked set:
structure=CNC(=O)c1c(-c2ccc(F)cc2)oc2cc(N(C)S(C)(=O)=O)c(-c3ccc4ncn5c6cccc(F)c6cc5c4n3)cc12 result="130 nM"
structure=CNC(=O)c1c(-c2ccc(F)cc2)oc2cc(N(C)S(C)(=O)=O)c(-c3ccc4c(n3)-c3cc5c(F)cccc5n3CC4)cc12 result="76 nM"
structure=CNC(=O)c1c(-c2ccc(F)cc2)oc2cc(N(C)S(C)(=O)=O)c(-c3ccc4c(n3)-c3cc5c(F)cccc5n3CN4)cc12 result="11 nM"

// sample CNC(=O)c1c(-c2ccc(F)cc2)oc2cc(N(C)S(C)(=O)=O)c(-c3ccc4ccn5c6cccc(F)c6cc5c4n3)cc12 , its concentration at 24 h was 140 nM

====

Assay: Cmax in monkey at 3 mg/kg, po
Format: ADME, organism-based, Macaca mulatta
Parameters: dose 3 mg/kg, route oral
Conditions: rhesus monkey, in vivo
observed_property: Cmax (nM)
Answers are plain numbers, in nM.

Worked set:
structure=CNC(=O)c1c(-c2ccc(F)cc2)oc2cc(N(C)S(C)(=O)=O)c(-c3ccc4c(n3)-c3cc5c(F)cccc5n3CC4)cc12 unit=nM quantitative_result=320
structure=CNC(=O)c1c(-c2ccc(F)cc2)oc2cc(N(C)S(C)(=O)=O)c(-c3ccc4ccn5c6cccc(F)c6cc5c4n3)cc12 unit=nM quantitative_result=370
structure=CNC(=O)c1c(-c2ccc(F)cc2)oc2cc(N(C)S(C)(=O)=O)c(-c3ccc4ncn5c6cccc(F)c6cc5c4n3)cc12 unit=nM quantitative_result=660

As a next step, examine the molecule that follows.
// sample CNC(=O)c1c(-c2ccc(F)cc2)oc2cc(N(C)S(C)(=O)=O)c(-c3ccc4c(n3)-c3cc5c(F)cccc5n3CN4)cc12 , its Cmax was 130

====

Experiment: Oral bioavailability in rat at 5 mg/kg
Type: ADME, organism-based
Conditions: in vivo
Give measured bioavailability for each item. Keep answers brief.
Numbers only, in %.

Worked set:
structure=CNC(=O)c1c(-c2ccc(F)cc2)oc2cc(N(C)S(C)(=O)=O)c(-c3ccc4ccn5c6cccc(F)c6cc5c4n3)cc12 unit=% quantitative_result=26
structure=CNC(=O)c1c(-c2ccc(F)cc2)oc2cc(N(C)S(C)(=O)=O)c(-c3ccc4c(n3)-c3cc5c(F)cccc5n3CC4)cc12 unit=% quantitative_result=18
structure=CNC(=O)c1c(-c2ccc(F)cc2)oc2cc(N(C)S(C)(=O)=O)c(-c3ccc4c(n3)-c3cc5c(F)cccc5n3CN4)cc12 unit=% quantitative_result=16
structure=CNC(=O)c1c(-c2ccc(F)cc2)oc2cc(N(C)S(C)(=O)=O)c(-c3cc4n(c(=O)c3)CCn3c-4cc4c(F)cccc43)cc12 unit=% quantitative_result=1
structure=CNC(=O)c1c(-c2ccc(F)cc2)oc2cc(N(C)S(C)(=O)=O)c(-c3ccc4ncn5c6cccc(F)c6cc5c4n3)cc12 unit=% quantitative_result=36

As a next step, examine the molecule that follows.
// sample CNC(=O)c1c(-c2ccc(F)cc2)oc2cc(N(C)S(C)(=O)=O)c(-c3ccc4c(n3)-c3cc5c(F)cccc5n3C4)cc12 , its bioavailability was 4
